// values below are reported CC50/EC50
Test system: HCV reporter replicon
Assay: HCV reporter replicon assay, antiviral activity (dual luciferase)
Type: cell-based
Conditions: 7-pt Assay
Method: All compounds were tested in an HCV reporter replicon assay. Briefly, a reporter replicon containing Huh-7 hepatoma cells was grown in DMEM (Invitrogen, Carlsbad, Calif.) and seeded in 96-well black wall, clear-bottom plates (Costar®; Coming Incorporated). […] Following three days of incubation, the media was aspirated from the wells and cells are washed with 100 μl PBS. […] Antiviral activity and cytotoxicity is measured following lysis using the dual luciferase kit (Promega Corp., Madison, Wis.). […]
Experimental Endpoint: CC50/EC50

1. CS(=O)(=O)N1CCN(S(=O)(=O)c2ccc(Oc3ccc(F)cc3)cc2)[C@@H](C(=O)NO)C1
444
2. CC1(C)SCCN(S(=O)(=O)c2ccc(Oc3ccncc3)cc2)[C@H]1C(=O)NO
880
3. O=C(NO)C1=C(SCCc2ccc(-c3ccccc3)cc2)CCCC1
15

====

Experiment: Solubility (Sol.) reported with the replicon assay
Conditions: 7-pt Assay
# Sol. annotations
Experimental Endpoint: Sol.

1. CS(=O)(=O)N1CCN(S(=O)(=O)c2ccc(Oc3ccc(F)cc3)cc2)[C@@H](C(=O)NO)C1 [Example 11]
>320 µM
2. Cc1cc(CSC(C)(C)[C@@H](NS(=O)(=O)c2ccc(Oc3ccc(Br)cc3)cc2)C(=O)NO)no1 [Example 14]
>320 µM
3. O=C(NO)[C@@H]1CCCC[C@H]1S(=O)(=O)CCc1ccccc1 [Example 5]
>320 µM
4. O=C(NO)[C@H]1CCCC[C@@H]1SCCc1ccc(-c2ccccc2)cc1 (relative stereo) [Example 6]
>320 µM
5. O=C(NO)C1CCCCN1S(=O)(=O)c1ccc(Sc2ccncc2)cc1 (centres unmarked) [Example 13]
>320 µM
6. CC1(C)SCCN(S(=O)(=O)c2ccc(Oc3ccncc3)cc2)[C@H]1C(=O)NO [Example 12]
>320 µM
7. CC(C)(C)OC(=O)N1CCN(S(=O)(=O)c2ccc(Oc3ccccn3)cc2)[C@@H](C(=O)NO)C1 [Example 10]
>320 µM
8. COC(=O)c1ccc(NC(=O)[C@H](CC(C)C)NC(=O)[C@@H](CC(=O)NO)c2ccccc2)cc1 [Example 8]
<100 µM
9. O=C(NO)C1=C(SCCc2ccc(-c3ccccc3)cc2)CCCC1 [Example 1]
<320 µM
10. O=C(NO)[C@@H]1CCCC[C@@H]1SCCc1ccccc1 [Example 3]
>320 µM
11. CC(=O)N1CCN(S(=O)(=O)c2ccc(Oc3ccccc3)cc2)C(C(=O)NO)C1 (centres unmarked) [Example 9]
>320 µM

====

Listing of recorded EC50 by entry.
Tested on: HCV reporter replicon
Experiment: HCV reporter replicon assay, antiviral activity (dual luciferase)
Type: cell-based
Conditions: Hepatitis C virus, Huh-7, 72 h, 7-pt Assay; replicon-containing Huh-7 cells, three days incubation; read-out: EC50
Experimental: All compounds were tested in an HCV reporter replicon assay. Briefly, a reporter replicon containing Huh-7 hepatoma cells was grown in DMEM (Invitrogen, Carlsbad, Calif.) and seeded in 96-well black wall, clear-bottom plates (Costar®; Coming Incorporated). […] Following three days of incubation, the media was aspirated from the wells and cells are washed with 100 μl PBS. […] Antiviral activity and cytotoxicity is measured following lysis using the dual luciferase kit (Promega Corp., Madison, Wis.). […]
Experimental Endpoint: EC50

1. Cc1cc(CSC(C)(C)[C@@H](NS(=O)(=O)c2ccc(Oc3ccc(Br)cc3)cc2)C(=O)NO)no1
1570 nM
2. O=C(NO)C1=C(SCCc2ccc(-c3ccccc3)cc2)CCCC1
2100 nM
3. O=C(NO)[C@@H]1CCCC[C@@H]1SCCc1ccccc1
2500 nM
4. O=C(NO)C1CCCCN1S(=O)(=O)c1ccc(Sc2ccncc2)cc1 (stereo not drawn)
440 nM
5. CC1(C)SCCN(S(=O)(=O)c2ccc(Oc3ccncc3)cc2)[C@H]1C(=O)NO
360 nM
6. COC(=O)c1ccc(NC(=O)[C@H](CC(C)C)NC(=O)[C@@H](CC(=O)NO)c2ccccc2)cc1
1500 nM

====

Tested on: HCV reporter replicon
Test: HCV reporter replicon assay, antiviral activity (dual luciferase)
Type: cell-based
Settings: Hepatitis C virus, 7-pt Assay; value marked (exp); read-out: EC50 (exp)
pEC50: −log10 of the molar value.
Experimental Endpoint: pEC50

1) CC(C)(C)OC(=O)N1CCN(S(=O)(=O)c2ccc(Oc3ccccn3)cc2)[C@@H](C(=O)NO)C1
6.82
2) O=C(NO)[C@H]1CCCC[C@@H]1SCCc1ccc(-c2ccccc2)cc1 (relative stereo)
7.47
3) CC(=O)N1CCN(S(=O)(=O)c2ccc(Oc3ccccc3)cc2)C(C(=O)NO)C1 (centres unmarked)
7.01
4) O=C(NO)[C@@H]1CCCC[C@H]1S(=O)(=O)CCc1ccccc1
6.62
5) CS(=O)(=O)N1CCN(S(=O)(=O)c2ccc(Oc3ccc(F)cc3)cc2)[C@@H](C(=O)NO)C1
7.57

====

Tested on: HCV reporter replicon
Test: HCV reporter replicon assay, antiviral activity (dual luciferase)
Assay type: cell-based
Conditions: Hepatitis C virus, Huh-7, 72 h, Extended 8-pt Assay; replicon-containing Huh-7 cells, three days incubation; read-out: EC50
Experimental Endpoint: log10 EC50 (log10 of the value in nM)

1. CC1(C)SCCN(S(=O)(=O)c2ccc(Oc3ccncc3)cc2)[C@H]1C(=O)NO
2.41
2. Cc1cc(CSC(C)(C)[C@@H](NS(=O)(=O)c2ccc(Oc3ccc(Br)cc3)cc2)C(=O)NO)no1
3.28
3. O=C(NO)C1=C(SCCc2ccc(-c3ccccc3)cc2)CCCC1
3.20
4. COC(=O)c1ccc(NC(=O)[C@H](CC(C)C)NC(=O)[C@@H](CC(=O)NO)c2ccccc2)cc1
3.08
5. O=C(NO)[C@H]1CCCC[C@@H]1SCCc1ccc(-c2ccccc2)cc1 (relative stereo)
1.70
6. O=C(NO)C1CCCCN1S(=O)(=O)c1ccc(Sc2ccncc2)cc1 (centres unmarked)
2.54
7. CC(C)(C)OC(=O)N1CCN(S(=O)(=O)c2ccc(Oc3ccccn3)cc2)[C@@H](C(=O)NO)C1
2.28
8. CC(=O)N1CCN(S(=O)(=O)c2ccc(Oc3ccccc3)cc2)C(C(=O)NO)C1 (centres unmarked)
1.26
9. O=C(NO)[C@@H]1CCCC[C@@H]1SCCc1ccccc1
3.28
10. O=C(NO)[C@@H]1CCCC[C@H]1S(=O)(=O)CCc1ccccc1
2.49
11. CS(=O)(=O)N1CCN(S(=O)(=O)c2ccc(Oc3ccc(F)cc3)cc2)[C@@H](C(=O)NO)C1
1.69

====

Experiment: in vitro
Type: cell-based
Conditions: human, 7-pt Assay; three days incubation
Entries annotated with measured CC50 at 3 days
Experimental Endpoint: CC50 at 3 days (µM)

1. O=C(NO)[C@H]1CCCC[C@@H]1SCCc1ccc(-c2ccccc2)cc1 (relative stereo)
111
2. Cc1cc(CSC(C)(C)[C@@H](NS(=O)(=O)c2ccc(Oc3ccc(Br)cc3)cc2)C(=O)NO)no1
78
3. O=C(NO)C1CCCCN1S(=O)(=O)c1ccc(Sc2ccncc2)cc1 (stereo not drawn)
293

====

Assay: Solubility (Sol.) reported with the replicon assay
Details: Extended 8-pt Assay
Experimental Endpoint: Sol.

1) CC1(C)SCCN(S(=O)(=O)c2ccc(Oc3ccncc3)cc2)[C@H]1C(=O)NO [Example 12]
>320 µM
2) CC(=O)N1CCN(S(=O)(=O)c2ccc(Oc3ccccc3)cc2)C(C(=O)NO)C1 (stereo not drawn) [Example 9]
>320 µM
3) CS(=O)(=O)N1CCN(S(=O)(=O)c2ccc(Oc3ccc(F)cc3)cc2)[C@@H](C(=O)NO)C1 [Example 11]
>320 µM
4) O=C(NO)[C@H]1CCCC[C@@H]1SCCc1ccc(-c2ccccc2)cc1 (relative stereo) [Example 6]
>320 µM
5) Cc1cc(CSC(C)(C)[C@@H](NS(=O)(=O)c2ccc(Oc3ccc(Br)cc3)cc2)C(=O)NO)no1 [Example 14]
<320 µM
6) O=C(NO)[C@@H]1CCCC[C@@H]1SCCc1ccccc1 [Example 3]
>320 µM

====

Assay: in vitro
Type: cell-based
Conditions: human, Extended 8-pt Assay; three days incubation
Experimental Endpoint: CC50 at 3 days

1) O=C(NO)[C@@H]1CCCC[C@H]1S(=O)(=O)CCc1ccccc1
> 320 µM
2) O=C(NO)C1CCCCN1S(=O)(=O)c1ccc(Sc2ccncc2)cc1 (centres unmarked)
211 µM
3) CC(C)(C)OC(=O)N1CCN(S(=O)(=O)c2ccc(Oc3ccccn3)cc2)[C@@H](C(=O)NO)C1
224 µM
4) O=C(NO)[C@H]1CCCC[C@@H]1SCCc1ccc(-c2ccccc2)cc1 (relative stereo)
99 µM
5) CC1(C)SCCN(S(=O)(=O)c2ccc(Oc3ccncc3)cc2)[C@H]1C(=O)NO
> 320 µM
6) O=C(NO)C1=C(SCCc2ccc(-c3ccccc3)cc2)CCCC1
31 µM
7) COC(=O)c1ccc(NC(=O)[C@H](CC(C)C)NC(=O)[C@@H](CC(=O)NO)c2ccccc2)cc1
> 320 µM
8) O=C(NO)[C@@H]1CCCC[C@@H]1SCCc1ccccc1
211 µM
